# measurement.description: kinase inhibitors against Plasmodium liver-stage infection, cell-based, known kinase inhibitor set, luminescence, hepatoma host viability (AID 624392);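 further: infected cells incubated roughly two days before readout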
# measurement.parameters: Plasmodium liver stage in hepatoma cells, luciferase luminescence, concentration not given here
Active and inactive are the calls of the source. How the calls were made is not given here.
Outcomes: active, inactive

compound=COC(=O)Nc1nc2ccc(Oc3ccc(NC(=O)Nc4cccc(C(=O)O)c4)cc3)cc2[nH]1 label_class=inactive
compound=COc1cc(Nc2nccc(-c3cnn4ncccc34)n2)cc(OC)c1 label_class=inactive
compound="COc1ccc(-c2cc(C3CNNC3c3ccccn3)ccn2)cc1 (stereo unspecified)" label_class=inactive
compound=Nc1c(C(=O)c2cccc(C#CCN3CCOCC3)c2)cnn1-c1ccc(F)cc1 label_class=inactive
compound=CCn1c(-c2nonc2N)nc2c(N3CCCC3)nccc21 label_class=inactive
compound=CS(=O)(=O)Nc1ccc(N=Cc2c(O)[nH]c3ccccc23)cc1 label_class=inactive
compound=COc1cc[nH]c1C=C1C(=O)Nc2ccccc21 label_class=inactive
compound=Fc1ccc(-c2c(-c3ccncc3)n(CCN3CCOCC3)c3cccnc23)cc1 label_class=inactive
compound=Nc1c(C(=O)c2ccccc2)cnn1-c1ccc(F)cc1 label_class=inactive
compound=Cn1c(=O)c(Cc2ccccc2F)cc2cnc(NC3CCOCC3)nc21 label_class=inactive
compound=O=[N+]([O-])c1ccc2c(c1)C(c1ccccc1Cl)=Nc1cn[nH]c1N2 label_class=inactive
compound=COc1cccc(-n2ncc3c(N/N=C/c4ccc(C)cc4)ncnc32)c1 label_class=inactive
compound=Cc1nnc(-c2ccc(C)c(-c3ccc(C(=O)NCc4ccc(Cl)cc4)cc3)c2)o1 label_class=inactive
compound=O=C1Nc2ccc(I)cc2/C1=C\c1cc(Br)c(O)c(Br)c1 label_class=inactive
compound=COc1ccc(-c2nn3ncccc3c2-c2ccnc(Nc3ccc4c(c3)OCCO4)n2)cc1 label_class=active
compound=O=C(O[C@H]1CN[C@H](C#Cc2cc3ncnc(Nc4ccc5c(cnn5Cc5ccccc5)c4)c3s2)C1)N1CCOCC1 label_class=inactive
compound=Cc1cccc2c(N=Nc3ccc(S(N)(=O)=O)cc3)c(O)[nH]c12 label_class=inactive
compound=COc1cc2ncn(-c3cc(OCc4cccs4)c(C(N)=O)s3)c2cc1OC label_class=inactive
compound=CC(C)(O)Cn1c(=O)c(Oc2ccc(F)cc2F)cc2cnc(NC3CCOCC3)nc21 label_class=inactive
compound=N#Cc1ccc(Oc2nccc(-c3c(-c4ccc(F)cc4)ncn3C3CCNCC3)n2)cc1 label_class=inactive
compound=Cn1cc(C2=C(c3ccsc3)C(=O)NC2=O)c2ccccc21 label_class=inactive

* * *

// nuclear beta-catenin stimulation lookup, one value per entry
# measurement.description: stimulators of nuclear beta-catenin in C2C12, primary screen, imaging, WNT3A-conditioned medium, mouse C2C12, NPC library (AID 1117326); further: reference of the scale not given here
# measurement.parameters: at 10 µM, hits give high values
readout: nuclear beta-catenin stimulation (%)

molecule=CCCCS(=O)(=O)N[C@@H](Cc1ccc(OCCCCC2CCNCC2)cc1)C(=O)O unit_annotation=% numeric_result=1.1
molecule=CCCCCCCCCCCCCC[N+](C)(C)Cc1ccccc1 unit_annotation=% numeric_result=55
molecule="CCOC(=O)NNc1ccc(N(CC)CC(C)O)nn1 (configuration not stated)" unit_annotation=% numeric_result=-1.1
molecule=Cc1ccc(Cl)c(Nc2ccccc2C(=O)O)c1Cl unit_annotation=% numeric_result=0.5
molecule="CCOC(=O)C1=C(C)NC(C)=C(C(=O)OC)C1c1cccc([N+](=O)[O-])c1 (configuration not stated)" unit_annotation=% numeric_result=-0.1
molecule=Cc1nc([N+](=O)[O-])cn1-c1ccc([N+](=O)[O-])cc1 unit_annotation=% numeric_result=-0.1
molecule=Cc1coc2ccccc2c1=O unit_annotation=% numeric_result=1.5
molecule=Cc1cc(=O)oc2cc(O[C@@H]3SC[C@@H](O)[C@H](O)[C@H]3O)ccc12 unit_annotation=% numeric_result=-0.2
molecule="C#CC(C)(CC)OC(=O)c1ccccc1C(=O)O (configuration not stated)" unit_annotation=% numeric_result=3.1
molecule=CCN(CC)CC(=O)Nc1c(C)cccc1C(=O)OC unit_annotation=% numeric_result=0
molecule="CC12CCC(C[N+](C)(CCC[N+](C)(C)C)C1)C2(C)C (configuration not stated)" unit_annotation=% numeric_result=-0.5
molecule=CC12CC3CC(C)(C1)CC(N)(C3)C2 unit_annotation=% numeric_result=2
